Target: LRP1 receptor (Low Density Lipoprotein Receptor-Related Protein) on Vero cells
Assay: cell-based or functional assay
measured parameter: Antiviral activity in Vero cells, IC50 (plaque reduction, DENV2)

These solved cases illustrate the format of a correct answer.
[[record]]
binder = "CSNIVIGIGDKALKINACKKK (modifications not checked) [peptide HDIII3CLW-]"
data_value = "> 100 µM"

[[record]]
binder = "SSNIVIGIGDKALKINWSKKK (modifications not checked) [peptide HDIII3CLC-]"
data_value = "> 100 µM"


# evaluate next
Reported Antiviral activity in Vero cells, IC50 (plaque reduction, DENV2) for CSNIVIGIGDKALAINWCKKK (modifications not checked) [peptide HDIII3CLK-] : what is it?
> 100 µM
